Target: T1, human EphA8 (Homo sapiens, UniProt P29322)
T1 construct: a protein of the extracellular region of each human Eph receptor fused with the SEAP protein and the His tag; made in house; host or cells: Expi293F cells (culture supernatant)
T1 sequence (P29322 28-542 limits assumed): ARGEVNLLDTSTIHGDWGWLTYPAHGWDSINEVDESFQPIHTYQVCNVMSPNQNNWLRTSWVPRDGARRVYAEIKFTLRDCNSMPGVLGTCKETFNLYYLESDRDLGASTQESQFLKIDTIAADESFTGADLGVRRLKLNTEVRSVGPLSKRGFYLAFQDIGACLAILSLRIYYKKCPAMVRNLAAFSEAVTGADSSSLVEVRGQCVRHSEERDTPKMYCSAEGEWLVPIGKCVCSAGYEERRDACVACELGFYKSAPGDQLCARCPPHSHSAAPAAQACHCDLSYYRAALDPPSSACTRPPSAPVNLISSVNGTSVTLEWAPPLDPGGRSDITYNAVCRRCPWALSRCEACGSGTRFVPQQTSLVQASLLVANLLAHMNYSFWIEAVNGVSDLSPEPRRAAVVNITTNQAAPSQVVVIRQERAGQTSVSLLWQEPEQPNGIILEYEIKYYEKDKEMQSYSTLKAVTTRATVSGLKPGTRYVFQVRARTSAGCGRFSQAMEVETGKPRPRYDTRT
Assay: Selectivity ELISA of humanized antibodies for human Eph receptor
Type: binding
Details: coated protein 1 nM
outcomeMeasure: hEphA8-SEAP-: absorbance at 450 nm, percentage with respect to hEphA4-SEAP-His as 100% (%)

molecule	reportedMeasurement
91 (antibody, V domains shown, constant regions without entry; synthetic humanized antibody light chain variable region sequence; synthetic humanized antibody heavy chain variable region sequence) VL: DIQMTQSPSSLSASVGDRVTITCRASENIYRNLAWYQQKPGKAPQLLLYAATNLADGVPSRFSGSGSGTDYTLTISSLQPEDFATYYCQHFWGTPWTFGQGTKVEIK VH: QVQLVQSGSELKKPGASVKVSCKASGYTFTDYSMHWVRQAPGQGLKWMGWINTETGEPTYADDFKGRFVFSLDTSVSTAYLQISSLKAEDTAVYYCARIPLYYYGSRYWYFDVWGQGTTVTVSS	6.2
88 (antibody, V domains shown, constant regions without entry; synthetic humanized antibody light chain variable region sequence; synthetic humanized antibody heavy chain variable region sequence) VL: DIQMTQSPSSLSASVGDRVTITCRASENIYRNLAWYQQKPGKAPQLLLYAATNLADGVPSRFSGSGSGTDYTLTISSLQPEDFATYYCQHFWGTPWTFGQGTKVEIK VH: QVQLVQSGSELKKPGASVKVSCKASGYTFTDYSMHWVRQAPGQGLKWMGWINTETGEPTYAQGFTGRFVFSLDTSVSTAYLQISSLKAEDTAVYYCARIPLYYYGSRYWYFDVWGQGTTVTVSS	6.2
